# METHOD NOTES: PAMPA permeability
# Type: in vitro ADME
# COND: Table 2
VALUE KIND: Papp (×10⁻⁶ cm/s)
State just the number; it will be interpreted in ×10⁻⁶ cm/s.

Prompt line: Would you kindly share the measured Papp for N=c1ccc2cnc3ccc(-c4ccc(N)nc4)cc3c2n1-c1cccc(C(F)(F)F)c1 ?
Response line: 228

Prompt line: Request the reported Papp associated with CN(C)CCN1CCN(C(=O)c2ccc(-n3/c(=N\C#N)ccc4cnc5ccc(-c6ccc(Cl)cc6)cc5c43)cc2)CC1
Response line: 8.8

Prompt line: Returns the measured Papp for the input compound. Input: C/N=c1\ccc2cnc3ccc(-c4ccc(Cl)cc4)cc3c2n1-c1ccc(C(=O)NC2CC2)cc1
Response line: 130

Prompt line: Param item = N=c1ccc2cnc3ccc(-c4ccc(Cl)cc4)cc3c2n1-c1cccc(Cl)c1 ; retrieve measured Papp.
Response line: 1240

Prompt line: # query: Papp of entry CCC(=O)/N=c1/ccc2cnc3ccc(-c4ccc(Cl)cc4)cc3c2n1-c1ccc(C(=O)NC2CC2)cc1
Response line: 445

====

# METHOD NOTES: Solubility pH 7.4
# Format: physicochemical
# COND: aqueous buffer, Table 1
VALUE KIND: solubility

Prompt line: Any idea what its solubility is? The compound is COC(=O)/N=c1\n(C)c2cnc3ccc(-c4cccc(F)c4)cc3c2n1-c1cc(C#N)c(N2CCN(C)CC2)cc1C
Response line: 14.5 µg/mL

Prompt line: Looking for the measured solubility of CCC(=O)/N=c1\n(C)c2cnc3ccc(-c4ccc(Cl)cc4)cc3c2n1-c1cc(C#N)ccc1C , can you help?
Response line: < 1 µg/mL

Prompt line: Fill blank: measured solubility of the compound Cc1ccc(C#N)cc1-n1/c(=N/S(N)(=O)=O)n(C)c2cnc3ccc(-c4cccc(F)c4)cc3c21 is ____.
Response line: < 1 µg/mL

Prompt line: What measured solubility goes with Cn1c(=N)n(-c2cccc(Cl)c2)c2c3cc(-c4ccc(Cl)cc4)ccc3ncc21 ?
Response line: < 1 µg/mL

Prompt line: Endpoint output: solubility of Cc1ccc(C#N)cc1-n1c(=N)n(C)c2cnc3ccc(C#Cc4ccccc4)cc3c21 . Value?
Response line: 1.4 µg/mL

Prompt line: Which solubility value is on record for CSc1ccc(C#N)cc1-n1/c(=N/C#N)n(C)c2cnc3ccc(-c4ccc(Cl)cc4)cc3c21 ?
Response line: < 1 µg/mL

Prompt line: Which solubility reading was recorded for the compound CNCc1cccc(-n2c(=N)n(C)c3cnc4ccc(-c5ccc(Cl)cc5)cc4c32)c1 ?
Response line: > 42 µg/mL

====

# METHOD NOTES: Solubility pH 7.4
# Assay type: physicochemical
# COND: aqueous buffer, Table 1
VALUE KIND: log10 solubility (log10 of the value in µg/mL)
All values: log10 solubility [µg/mL].

Prompt line: Given the compound Cc1ccc(-c2ccc3ncc4c(c3c2)n(-c2cc(C#N)c(N3CCOCC3)cc2C)c(=N)n4C)cc1 [Compound 145] , what is its reported log10 solubility?
Response line: 1.22

Prompt line: Which log10 solubility reading was recorded for the compound Cc1ccc(C#N)cc1-n1/c(=N/C(N)=O)n(C)c2cnc3ccc(-c4ccc(F)cc4)cc3c21 [Compound 55] ?
Response line: 0.11

Prompt line: Entry Cn1c(=N)n(-c2ccc(C(=O)NC3CC3)cc2)c2c3cc(-c4ccc(Cl)cc4)ccc3ncc21 [Compound 65] has what log10 solubility?
Response line: 0.79

Prompt line: Entry under review: Cn1c(=N)n(-c2cccc(O)c2)c2c3cc(-c4ccc(Cl)cc4)ccc3ncc21 [Compound 79] . Reported log10 solubility?
Response line: 0.99

Prompt line: // log10 solubility lookup, key: Cc1ccc(C#N)cc1-n1c(=N)n(C)c2cnc3ccc(-c4ccc(Cl)c(C#N)c4)cc3c21 [Compound 30]
Response line: 0.86

Prompt line: Sample Cn1c(=N)n(-c2cncc(C(N)=O)c2)c2c3cc(-c4ccc(Cl)cc4)ccc3ncc21 [Compound 46] — what was its log10 solubility?
Response line: 1.30

Prompt line: Give the measured log10 solubility of CCc1ccc(C#N)cc1-n1c(=N)n(C)c2cnc3ccc(-c4ccc(Cl)cc4)cc3c21 [Compound 7] .
Response line: 0.53

Prompt line: Please give the measured log10 solubility for this compound: CCCC/N=c1\n(C)c2cnc3ccc(-c4ccc(Cl)cc4)cc3c2n1-c1cc(C#N)ccc1C [Compound 17]
Response line: 0.04

The measured values listed here are drawn from patent US20210188843A1.
